- test_system: mouse GLP-1 receptor (mouse) (UniProt O35659)
- Sequence (O35659 22-463): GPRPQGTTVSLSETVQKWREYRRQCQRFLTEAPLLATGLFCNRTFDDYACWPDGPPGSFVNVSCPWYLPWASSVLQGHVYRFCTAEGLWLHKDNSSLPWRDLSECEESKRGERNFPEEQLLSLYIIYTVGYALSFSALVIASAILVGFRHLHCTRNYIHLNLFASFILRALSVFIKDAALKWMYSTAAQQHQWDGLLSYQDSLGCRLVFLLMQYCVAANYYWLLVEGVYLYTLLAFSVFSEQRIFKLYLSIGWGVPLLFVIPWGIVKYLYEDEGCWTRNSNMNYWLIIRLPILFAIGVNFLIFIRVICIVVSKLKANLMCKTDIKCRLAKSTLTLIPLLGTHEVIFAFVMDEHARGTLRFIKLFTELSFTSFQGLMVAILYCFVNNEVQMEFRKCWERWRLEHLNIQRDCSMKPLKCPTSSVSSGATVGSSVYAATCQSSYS
- test_details: cell-based or functional assay
value_type: log10 of cAMP EC50 (log10 of the value in nM)
Hi team, quick reminder: these entries are log10 of cAMP EC50 (nM).

Note to self: log10 of cAMP EC50 recorded for IP223 (Fc fusion) YSEGTFTSDVSSYMEEEAIDEFIAWLLKGGAAAGGSGSTASSGSGSATGGGGAATHTCPPCPAPEF was 1.90

Note to self: log10 of cAMP EC50 recorded for IP350 (Fc fusion) YSEGTFTSDYSKLLERQAIDEFIAGLLKGGGGGGGSGGGGSGGGGSGGGGSGGGGSGGGGSA was 0.43

Note to self: log10 of cAMP EC50 recorded for IP310 (Fc fusion) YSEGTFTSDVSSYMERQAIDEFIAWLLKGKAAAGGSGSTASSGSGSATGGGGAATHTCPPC was 0.15

Note to self: log10 of cAMP EC50 recorded for IP412 (Fc fusion) YSEGTFTSDYSKLLEEEANRLFIEWLLAGGGGGGSGGGGSGGGGSGGGGSATHTCPPC was 0.08

Note to self: log10 of cAMP EC50 recorded for IP373 (Fc fusion) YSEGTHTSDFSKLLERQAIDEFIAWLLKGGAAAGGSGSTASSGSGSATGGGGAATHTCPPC was 0.96
